- Tested on: Haemophilus
- assay: In vitro inhibitory activity against Haemophilus AmpR (37)
- Assay type: functional
recordedMetric: MIC90 (µg/mL)
Could you give me the number in µg/mL? Just the number is fine.

Below are worked cases with known answers.
molecule	assayTarget	MIC90 (µg/mL)
CC[C@H]1OC(=O)[C@H](C)[C@@H](O[C@H]2C[C@@](C)(OC)[C@@H](O)[C@H](C)O2)[C@H](C)[C@@H](O[C@@H]2O[C@H](C)C[C@H](N(C)C)[C@H]2O)[C@](C)(O)C[C@@H](C)CN(C)[C@H](C)[C@@H](O)[C@]1(C)O	Haemophilus	1.2
CC[C@H]1OC(=O)[C@H](C)[C@@H](O[C@H]2C[C@@](C)(OC)[C@@H](O)[C@H](C)O2)[C@H](C)[C@@H](O[C@@H]2O[C@H](C)C[C@H](N(C)C)[C@H]2O)[C@](C)(OC)C[C@@H](C)C(=O)[C@H](C)[C@@H](O)[C@]1(C)O	Haemophilus	10

Lookup: If you can, please state the reported MIC90 value of CO[C@@H]1[C@@H](OC2OC(C)C(OC3CC(C)(O)C(OC(=O)CC(C)C)C(C)O3)C(N(C)C)C2O)[C@@H](CC=O)C[C@@H](C)[C@@H](O)/C=C/C=C/C[C@@H](C)OC(=O)C[C@H]1OC(C)=O (stereo not given in full) .
Found: 20

Lookup: If you can, please state the reported MIC90 value of CC[C@H]1OC(=O)[C@H](C)[C@@H](O[C@H]2C[C@@](C)(OC)[C@@H](O)[C@H](C)O2)[C@H](C)[C@@H](O[C@@H]2O[C@H](C)C[C@H](N(C)C)[C@H]2O)[C@](C)(O)C[C@@H](C)C(=O)[C@H](C)[C@@H](O)[C@]1(C)O .
Found: 10

Lookup: If you can, please state the reported MIC90 value of CC1(C)S[C@@H]2[C@H](NC(=O)[C@H](N)c3ccccc3)C(=O)N2[C@H]1C(=O)O .
Found: 1

* * *

# MIC listing for each entry below
- Tested on: Staphylococcus aureus
- assay: In vitro inhibitory activity against Staphylococcus aureus (EryRi 011GO25i)
- Format: functional
Could you give me the number in µg/mL? Just the number is fine.

Below are worked cases with known answers.
compoundStructureString	MIC, µg/mL
CC[C@H]1OC(=O)[C@H](C)C(=O)[C@H](C)[C@@H](O[C@@H]2O[C@H](C)C[C@H](N(C)C)[C@H]2O)[C@](C)(OC)C[C@@H](C)/C(=N\OCCNCCCn2ccnc2)[C@H](C)[C@@H](O)[C@]1(C)O	2.5
CC[C@H]1OC(=O)[C@H](C)C(=O)[C@H](C)[C@@H](O[C@@H]2O[C@H](C)C[C@H](N(C)C)[C@H]2O)[C@](C)(OC)C[C@@H](C)C(=O)[C@H](C)[C@H]2N(NCCCc3cccc(Cl)c3)C(=O)O[C@]12C	0.08

Lookup: If you can, please state the reported MIC value of CC[C@H]1OC(=O)[C@H](C)[C@@]2(O)O[C@@](C)(C[C@@H](C)/C(=N\O)[C@H](C)[C@@H](O)[C@]1(C)O)[C@H](O[C@@H]1O[C@H](C)C[C@H](N(C)C)[C@H]1O)[C@H]2C .
Found: 40

* * *

- Tested on: Streptococcus pneumoniae
- assay: In vitro inhibitory activity against Streptococcus pneumoniae (EryRi 030SJ5i)
- Type: functional
Labelling field: enter True if recorded MIC is less than 0.3 µg/mL. Enter False if it equals or exceeds that cut-off.

Worked examples, 5 compounds total:
compoundStructureString	label
CC[C@H]1OC(=O)[C@H](C)C(=O)[C@H](C)[C@@H](O[C@@H]2O[C@H](C)C[C@H](N(C)C)[C@H]2O)[C@](C)(OC)C[C@@H](C)/C(=N\OCCNCCCn2ccnc2)[C@H](C)[C@@H](O)[C@]1(C)O	False
CC[C@H]1OC(=O)[C@H](C)C(=O)[C@H](C)[C@@H](O[C@@H]2O[C@H](C)C[C@H](N(C)C)[C@H]2O)[C@](C)(OC)C[C@@H](C)/C(=N\OCCN2CCCCC2)[C@H](C)[C@@H](O)[C@]1(C)O	False
CC[C@H]1OC(=O)[C@H](C)C(=O)[C@H](C)[C@@H](O[C@@H]2O[C@H](C)C[C@H](N(C)C)[C@H]2O)[C@](C)(OC)C[C@@H](C)/C(=N\OCCN2CCC2)[C@H](C)[C@@H](O)[C@]1(C)O	False
CC[C@H]1OC(=O)[C@H](C)C(=O)[C@H](C)[C@@H](O[C@@H]2O[C@H](C)C[C@H](N(C)C)[C@H]2O)[C@](C)(OC)C[C@@H](C)/C(=N\OC[C@@H](N)C(=O)[O-])[C@H](C)[C@@H](O)[C@]1(C)O.[K+]	False
CC[C@H]1OC(=O)[C@H](C)[C@@]2(O)O[C@@](C)(C[C@@H](C)/C(=N\O)[C@H](C)[C@@H](O)[C@]1(C)O)[C@H](O[C@@H]1O[C@H](C)C[C@H](N(C)C)[C@H]1O)[C@H]2C	False

Lookup: Please let me know if CC[C@H]1OC(=O)[C@H](C)C(=O)[C@H](C)[C@@H](O[C@@H]2O[C@H](C)C[C@H](N(C)C)[C@H]2O)[C@](C)(OC)C[C@@H](C)/C(=N\OCCNCCN2CCCC2)[C@H](C)[C@@H](O)[C@]1(C)O shows MIC below 0.3 µg/mL.
Found: False

Lookup: Please let me know if CC[C@H]1OC(=O)[C@H](C)C(=O)[C@H](C)[C@@H](O[C@@H]2O[C@H](C)C[C@H](N(C)C)[C@H]2O)[C@](C)(OC)C[C@@H](C)C(=O)[C@H](C)[C@H]2N(NCCCc3ccnc4ccccc34)C(=O)O[C@]12C shows MIC below 0.3 µg/mL.
Found: True

Lookup: Please let me know if CC[C@H]1OC(=O)[C@H](C)C(=O)[C@H](C)[C@@H](O[C@@H]2O[C@H](C)C[C@H](N(C)C)[C@H]2O)[C@](C)(OC)C[C@@H](C)C(=O)[C@@H](C)[C@H]2N(NCCCc3ccnc4c(OC)cccc34)C(=O)O[C@]12C shows MIC below 0.3 µg/mL.
Found: True
